The entries below come with measured pIC50 values attached.
System: Ca9-22
Assay: Antiproliferative activity against human Ca9-22 cells incubated for 24 hrs by MTT assay
Type: functional, cell-based
Conditions: Ca9-22, 24 h
The meaning of pIC50 here: minus log10 of the concentration in molar units.

C/C1=C/CCC2=C[C@H](OC2=O)C(C)(C)/C=C/C1=O    5.12

Could you now look at the following molecule, please?
Query string: Data request, read-out pIC50, for C/C1=C/CCC2=C[C@H](OC2=O)C(C)(C)/C=C\C1=O
Result string: 5.00

###

Test system: Ca9-22
Assay: Antiproliferative activity against human Ca9-22 cells incubated for 24 hrs by MTT assay
Format: functional, cell-based
Conditions: Ca9-22, 24 h
measured_property: IC50

Consider the reported IC50 for these compounds:
C/C1=C/CCC23C(=O)O[C@H]4[C@@H]2[C@@H](C1=O)[C@@H]3C4(C)C    > 10 µM
CC1(C)/C=C/[C@H](O)[C@@]2(C)O[C@H]2CCC2=C[C@@H]1OC2=O    > 10 µM

// moving on: another record for IC50
Query string: I am curious: what IC50 value has been reported for CC1(C)/C=C/[C@H](O)[C@@]2(C)O[C@@H]2CCC2=C[C@@H]1OC2=O ?
Result string: > 10 µM
